B1: NECAB1 (parent)
chain: FSPNSPQFNVSGPGLLEEDNQWMT

Variants of: B1
Assay: protein stability index of a GFP-peptide fusion (GPS, HEK-293T) (PSI 1-6); higher = more stable;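 note: lentivirally expressed fusions sorted by FACS into six bins by GFP to DsRed ratio, PSI derived from sequencing read proportions per bin multiplied by bin number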
Settings: c terminus: a fixed tail appended
Classification field: enter label 1 for protein stability index values not below 3, label 0 for values below it.

{"columns": ["changes", "classification"],
 "data": [
  ["N9I", "label 0"],
  ["S5Q", "label 1"],
  ["V10D", "label 1"],
  ["N9V", "label 0"],
  ["E17P", "label 0"],
  ["V10P", "label 1"],
  ["S11W", "label 1"],
  ["P6I", "label 0"],
  ["G12M", "label 1"],
  ["N4I", "label 0"]
]}

Sourced from the supplement of paper PMC10567573
